Attribution: patent US10239843B2

target: Human Full Length PARG (Homo sapiens (Human), UniProt Q86W56); experiment: PARG enzyme assay (TR-FRET); assay type: biochemical; conditions: read-out: PARG Biochem IC50 Geomean
Sequence (Q86W56 whole entry): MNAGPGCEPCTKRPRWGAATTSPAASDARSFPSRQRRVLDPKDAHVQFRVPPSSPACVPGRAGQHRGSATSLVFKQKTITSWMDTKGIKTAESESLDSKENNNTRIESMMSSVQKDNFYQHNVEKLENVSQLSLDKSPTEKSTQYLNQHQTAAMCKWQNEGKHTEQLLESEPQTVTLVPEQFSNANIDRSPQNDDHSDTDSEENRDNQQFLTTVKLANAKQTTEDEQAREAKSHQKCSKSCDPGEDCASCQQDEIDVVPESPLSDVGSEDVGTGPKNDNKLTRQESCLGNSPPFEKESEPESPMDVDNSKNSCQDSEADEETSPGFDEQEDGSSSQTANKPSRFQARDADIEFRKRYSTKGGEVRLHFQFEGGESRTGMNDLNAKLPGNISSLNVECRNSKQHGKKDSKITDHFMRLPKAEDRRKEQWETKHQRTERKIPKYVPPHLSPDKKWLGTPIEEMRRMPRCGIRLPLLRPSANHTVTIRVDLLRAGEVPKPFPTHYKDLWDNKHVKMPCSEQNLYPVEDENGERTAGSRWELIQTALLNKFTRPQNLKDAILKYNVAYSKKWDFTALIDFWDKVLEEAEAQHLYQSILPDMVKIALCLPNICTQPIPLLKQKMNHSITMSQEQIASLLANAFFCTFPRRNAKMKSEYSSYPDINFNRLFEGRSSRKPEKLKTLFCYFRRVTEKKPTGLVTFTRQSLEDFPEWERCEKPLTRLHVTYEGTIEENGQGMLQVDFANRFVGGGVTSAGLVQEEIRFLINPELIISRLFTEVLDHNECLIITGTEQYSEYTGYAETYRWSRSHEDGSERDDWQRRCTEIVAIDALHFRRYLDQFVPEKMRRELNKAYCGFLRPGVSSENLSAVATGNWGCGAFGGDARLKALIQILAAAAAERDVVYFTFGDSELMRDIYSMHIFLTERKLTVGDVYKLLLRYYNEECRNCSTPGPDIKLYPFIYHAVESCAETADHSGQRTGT
pIC50: −log10 of the molar value.
experimental_readout: pIC50

compound | pIC50
Cn1cc(Cn2c(=O)n(C)c(=O)c3cc(S(=O)(=O)NC4(C)CC4)ccc32)cn1 [Example 152] | 6.33

a: Cc1cc(Cn2nc(N(C)C)c3ccc(S(=O)(=O)NC4(C)CC4)cc3c2=O)on1 [Example 282]
b: C#CCn1c(=O)n(Cc2cnn(C)c2)c(=O)c2cc(S(=O)(=O)NC3(C#N)CC3)ccc21 [Example 355]
c: C#CCn1c(=O)n(Cc2cnc(C)s2)c(=O)c2cc(S(=O)(=O)NC3(C)CC3)ccc21 [Example 161]
d: Cn1c(=O)n(Cc2cnccn2)c(=O)c2cc(S(=O)(=O)NC3(C)CC3)ccc21 [Example 108]
[Q] // smallest pIC50 at index 0, largest at the end Please respond by ranking the labels in the order requested.
[A] d, a, b, c

* * *

molecular target: Human Full Length PARG (Homo sapiens (Human)); assay: PARG enzyme assay (TR-FRET); type: biochemical; conditions: read-out: PARG Biochem IC50
pIC50: −log10 of the molar value.
experimental_readout: pIC50

1: Cc1cc(Cn2c(=O)n(Cc3cnn(C)c3)c(=O)c3cc(S(=O)(=O)NC4(CF)CC4)ccc32)ccn1
2: Cn1c(=O)n(CC(=O)c2cccs2)c(=O)c2cc(S(=O)(=O)NC3(C)CC3)ccc21
[Q] // returns 1 or 2 , whichever has the lower pIC50 Refer to your chosen entry by its label in the reply.
[A] 2

A: COCCCn1c(=O)n(Cc2cc(C)no2)c(=O)c2cc(S(=O)(=O)NC3(CF)CC3)ccc21
B: COC1(Cn2c(=O)n(Cc3cc(C)no3)c(=O)c3cc(S(=O)(=O)NC4(C)CC4)ccc32)CCCC1
C: Cc1cc(Cn2c(=O)c3cc(S(=O)(=O)NC4(CF)CC4)ccc3n(CC3CC3)c2=O)on1
[Q] Please order the records by their reported pIC50, lowest number first. In plain terms: list the labels in the order you were asked to.
[A] B, A, C

A: Cc1nnc(Cn2c(=O)c3cc(S(=O)(=O)NC4(C)CC4)ccc3n(C)c2=O)s1
B: Cn1cc(Cn2c(=O)c3cc(S(=O)(=O)NC4(CF)CC4)ccc3n(Cc3nc[nH]n3)c2=O)cn1
[Q] Compare A and B and name the one whose reported pIC50 is smaller. Provide the label of your selected option as the answer.
[A] A

* * *

target: Human Full Length PARG (Homo sapiens (Human)); assay: PARG enzyme assay (TR-FRET); format: biochemical; conditions: read-out: PARG Biochem IC50 Geomean
experimental_readout: IC50 (nM)

Solved entries (count: 5):
molecule | target_or_test_system | IC50, nM
Cc1cc(Cn2c(=O)c3cc(S(=O)(=O)NC4(C)CC4)ccc3n(CC3CCCC3)c2=O)on1 [Example 289] | Human Full Length PARG (Homo sapiens (Human)) | 280
CCn1c(=O)c2cc(S(=O)(=O)NC3(C)CC3)ccc2n(CCOC)c1=O [Example 17] | Human Full Length PARG (Homo sapiens (Human)) | 1570
Cn1cc(Cn2c(=O)c3cc(S(=O)(=O)NC4(C#N)CC4)ccc3n(CC3COC3)c2=O)cn1 [Example 354] | Human Full Length PARG (Homo sapiens (Human)) | 164
Cc1nc2ccc(S(=O)(=O)NC3(C)CC3)cc2c(=O)n1C [Example 51] | Human Full Length PARG (Homo sapiens (Human)) | 4160
Cc1cc(Cn2nc(NC3CCOCC3)c3ccc(S(=O)(=O)NC4(C)CC4)cc3c2=O)on1 [Example 306] | Human Full Length PARG (Homo sapiens (Human)) | 367

1: Cc1cc(Cn2cc(Cc3ccc(F)cc3)c3ccc(S(=O)(=O)NC4(C)CC4)cc3c2=O)on1 [Example 322]
2: Cc1cc(Cn2nc(OC3CCC3)c3ccc(S(=O)(=O)NC4(C)CC4)cc3c2=O)on1 [Example 319]
[Q] Hi there, can you help? I need to know whether 1 or 2 has lower measured IC50. Mark your selection by writing its label.
[A] 2

* * *

target: Human Full Length PARG (Homo sapiens (Human), UniProt Q86W56); assay: PARG enzyme assay (TR-FRET); format: biochemical; details: read-out: PARG Biochem IC50
pIC50: −log10 of the molar value.
experimental_readout: pIC50

Record excerpt, results attached:
item_smiles | reading
Cc1cc(Cn2c(=O)c3cc(S(=O)(=O)NC4(C)CC4)ccc3n(CC(C)(C)C#N)c2=O)on1 | 6.69
Cc1ncc(Cn2c(=O)c3cc(S(=O)(=O)NC4(C#N)CC4)ccc3n(Cc3sc(C)nc3C)c2=O)s1 | 8.10
Cc1nc(Cn2c(=O)n(Cc3cnn(C)c3)c(=O)c3cc(S(=O)(=O)NC4(CF)CC4)ccc32)c[nH]1 | 7.00

P: Cc1cc(Cn2c(=O)c3cc(S(=O)(=O)NC4(C)CC4)ccc3n(CC3CN(C=O)C3)c2=O)on1
Q: C#CC1(NS(=O)(=O)c2ccc3c(c2)c(=O)n(Cc2cnn(C)c2)c(=O)n3CC2CC2)CC1
R: Cn1c(=O)n(Cc2ccnnc2)c(=O)c2cc(S(=O)(=O)NC3(C)CC3)ccc21
S: Cc1cc(Cn2c(=O)c3cc(S(=O)(=O)NC4(CF)CC4)ccc3n(CC3COC3)c2=O)on1
T: CCC(=O)Cn1c(=O)c2cc(S(=O)(=O)NC3(C)CC3)ccc2n(C)c1=O
[Q] Place the items in sequence of falling pIC50. Hello, could you send the labels back in the order asked? Thank you.
[A] S, P, Q, T, R
(S: 6.95, P: 6.67, Q: 6.31, T: 5.92, R: 4.87)

A: Cn1cc(Cn2c(=O)c3cc(S(=O)(=O)NC4(CF)CC4)ccc3n(CCC#N)c2=O)cn1
B: Cc1n[nH]c(Cn2c(=O)n(Cc3cnn(C)c3)c(=O)c3cc(S(=O)(=O)NC4(CF)CC4)ccc32)n1
[Q] Could you check which of A and B has a smaller value for pIC50? Could you answer with the label of the item you picked?
[A] B
(B: 6.52, A: 6.77)

P: Cn1cc(Cn2c(OCC3(C)COC3)nc3cc(F)c(S(=O)(=O)NC4(C)CC4)cc3c2=O)cn1
Q: Cc1cc(Cn2c(=O)c3cc(S(=O)(=O)NC4(CF)CC4)ccc3n(Cc3cc(C)no3)c2=O)on1
[Q] // which entry reports the smaller pIC50, P or Q ? Mark your selection by writing its label.
[A] P
(P: 6.55, Q: 7.27)

a: CCOCCn1c(=O)n(Cc2cnn(C)c2)c(=O)c2cc(S(=O)(=O)NC3(CF)CC3)ccc21
b: Cc1ncc(Cn2c(=O)c3cc(S(=O)(=O)NC4(C#N)CC4)ccc3n(Cc3cnn(C)c3)c2=O)s1
[Q] Lower value of pIC50 belongs to which: a or b ? Kindly state the label of the option you pick.
[A] a

A: CCCn1c(=O)n(Cc2cc(C)no2)c(=O)c2cc(S(=O)(=O)NC3(CF)CC3)ccc21
B: Cn1ncc(Cn2c(=O)c3cc(S(=O)(=O)NC4(CF)CC4)ccc3n(C)c2=O)n1
C: Cn1cc(Cn2c(=O)c3cc(S(=O)(=O)NC4(CF)CC4)ccc3n(CC3CC3)c2=O)cn1
D: Cc1nnc(Cn2c(=O)c3cc(S(=O)(=O)NC4(CF)CC4)ccc3n(Cc3cnn(C)c3)c2=O)s1
E: Cn1cc(Cn2c(=O)[nH]c3ccc(S(=O)(=O)NC4(CF)CC4)cc3c2=O)cn1
[Q] List items by pIC50 in falling order. Kindly provide the labels arranged according to the requested ordering.
[A] D, C, A, E, B

P: CCn1c(=O)n(Cc2nnc(C)s2)c(=O)c2cc(S(=O)(=O)NC3(C)CC3)ccc21
Q: Cn1c(=O)[nH]c(=O)c2cc(S(=O)(=O)NC3(CF)CC3)ccc21
[Q] Rank P against Q by their pIC50 values and give the higher one. Could you answer with the label of the item you picked?
[A] P
(P: 6.62, Q: 5.53)

I: COCCn1c(=O)n(Cc2cnn(C)c2)c(=O)c2cc(S(=O)(=O)NC3(CF)CC3)ccc21
II: CC1(NS(=O)(=O)c2ccc3[nH]c(=O)c(Br)cc3c2)CC1
[Q] Between the entries labelled I and II , which has a larger pIC50 value on record? Selection: enter the item's label.
[A] I
(I: 6.61, II: 5.05)

* * *

target: Human Full Length PARG (Homo sapiens (Human), UniProt Q86W56); assay: PARG enzyme assay (TR-FRET); type: biochemical; settings: read-out: PARG Biochem IC50
experimental_readout: IC50 (nM)

compound | reading
Cn1cc(Cn2c(=O)c3cc(S(=O)(=O)NC4(CF)CC4)ccc3n(Cc3cscn3)c2=O)cn1 | 57
Cc1cc(Cn2c(=O)c3cc(S(=O)(=O)NC4(CF)CC4)ccc3n(Cc3nncs3)c2=O)on1 | 159
CNC(=O)c1cc(S(=O)(=O)NC2(C)CC2)cc2c(=O)n(Cc3cnn(C)c3)c(=O)[nH]c12 | 213
CC(C)=CCn1c(=O)n(Cc2cnn(C)c2)c(=O)c2cc(S(=O)(=O)NC3(CF)CC3)ccc21 | 51
Cn1cc(Cc2cc3cc(S(=O)(=O)NC4(C)CC4)ccc3[nH]c2=O)cn1 | 1620

I: Cc1cc(Cn2c(=O)c3cc(S(=O)(=O)NC4(C)CC4)cc(-c4ccc(C)s4)c3n(C)c2=O)on1
II: Cc1ncc(Cn2c(=O)c3cc(S(=O)(=O)NC4(C#N)CC4)ccc3n(Cc3ccc(F)cc3)c2=O)s1
III: Cc1cc(Cn2c(=O)c3cc(S(=O)(=O)NC4(C)CC4)ccc3n(CCC(C)C)c2=O)on1
IV: Cn1cc(Cn2c(=O)c3cc(S(=O)(=O)NC4(CF)CC4)ccc3n(Cc3cncn3C)c2=O)cn1
V: Cc1cncc(Cn2c(=O)c3cc(S(=O)(=O)NC4(C)CC4)ccc3n(C)c2=O)c1
[Q] Please list these compounds in decreasing order of IC50. Answer with the labels in sequence, matching the requested order.
[A] V, I, III, II, IV
(V: 2270 nM, I: 453 nM, III: 273 nM, II: 66 nM, IV: 19 nM)
